Data provenance: the supplement of paper PMC10307832

Answer each item with its documented relative viability.
# Tested on: NCI-H1299
# ASSAY PROTOCOL: relative viability (nuclei count vs DMSO), 5 days (fraction); higher = more cells survive
# CONDITION INFO: first compound 0.03162 µM
The answer should be written as a number, with no unit following it.

Problem: Give the reported relative viability for this compound. CC(C)Oc1cc(Nc2nc(N[C@@H](C)c3ccc(F)cn3)ncc2Cl)n[nH]1 [AZ23] + CC1(C)CCC(c2ccc(Cl)cc2)=C(CN2CCN(c3ccc(C(=O)NS(=O)(=O)c4ccc(N[C@H](CCN5CCOCC5)CSc5ccccc5)c(S(=O)(=O)C(F)(F)F)c4)cc3)CC2)C1 [Navitoclax] (partner 0.5 µM)
Result: 1.04

Problem: Give the reported relative viability for this compound. CC(C)Oc1cc(Nc2nc(N[C@@H](C)c3ccc(F)cn3)ncc2Cl)n[nH]1 [AZ23] + COc1cc2c(Oc3ccc(NC(=O)C4(C(=O)Nc5ccc(F)cc5)CC4)cc3F)ccnc2cc1OCCCN1CCOCC1 [Foretinib] (partner 0.25 µM)
Result: 1.16

Problem: Give the reported relative viability for this compound. CC(C)Oc1cc(Nc2nc(N[C@@H](C)c3ccc(F)cn3)ncc2Cl)n[nH]1 [AZ23] + O=C(c1cc(Cc2n[nH]c(=O)c3ccccc23)ccc1F)N1CCN(C(=O)C2CC2)CC1 [Olaparib] (partner 8 µM)
Result: 0.984

Problem: Give the reported relative viability for this compound. CC(C)Oc1cc(Nc2nc(N[C@@H](C)c3ccc(F)cn3)ncc2Cl)n[nH]1 [AZ23] + C[C@@H](Oc1cc(-c2cnn(C3CCNCC3)c2)cnc1N)c1c(Cl)ccc(F)c1Cl [Crizotinib] (partner 1 µM)
Result: 1.01

###

# Test system: LOU-NH91
# ASSAY PROTOCOL: relative viability (nuclei count vs DMSO), 5 days (fraction); higher = more cells survive
# CONDITION INFO: first compound 0.04 µM
Answer each item with its documented relative viability.
The answer should be written as a number, with no unit following it.

Problem: Give the reported relative viability for this compound. Clc1ccc(Nc2nnc(Cc3ccncc3)c3ccccc23)cc1 [Vatalanib] + Nc1ncn([C@H]2C[C@H](O)[C@@H](CO)O2)c(=O)n1 [Decitabine] (partner 2 µM)
Result: 0.766

Problem: Give the reported relative viability for this compound. COc1cc(N2CCC(C(N)=O)CC2)ccc1Nc1nc(N)c(Cl)c(Nc2ccccc2S(=O)(=O)C(C)C)n1 [HG-5-88-01] + O=C(CCCCCCC(=O)Nc1ccccc1)NO [Vorinostat] (partner 1 µM)
Result: 0.869

Problem: Give the reported relative viability for this compound. C[C@@H]1CN(CC(=O)Nc2ccc3c(c2)Cc2cccc(-c4cc(=O)cc(N5CCOCC5)o4)c2S3)C[C@H](C)O1 + Cc1nc(Nc2ncc(C(=O)Nc3c(C)cccc3Cl)s2)cc(N2CCN(CCO)CC2)n1 [Dasatinib] (partner 0.075 µM)
Result: 0.588

Problem: Give the reported relative viability for this compound. COc1cc(N2CCC(C(N)=O)CC2)ccc1Nc1nc(N)c(Cl)c(Nc2ccccc2S(=O)(=O)C(C)C)n1 [HG-5-88-01] + COc1cc2c(Oc3ccc(NC(=O)C4(C(=O)Nc5ccc(F)cc5)CC4)cc3F)ccnc2cc1OCCCN1CCOCC1 [Foretinib] (partner 0.25 µM)
Result: 0.905

Problem: Give the reported relative viability for this compound. COc1cc(N2CCC(C(N)=O)CC2)ccc1Nc1nc(N)c(Cl)c(Nc2ccccc2S(=O)(=O)C(C)C)n1 [HG-5-88-01] + CS(=O)(=O)CCNCc1ccc(-c2ccc3ncnc(Nc4ccc(OCc5cccc(F)c5)c(Cl)c4)c3c2)o1 [Lapatinib] (partner 2 µM)
Result: 0.743

###

# System: NCI-H1792
# ASSAY PROTOCOL: relative viability (nuclei count vs DMSO), 5 days (fraction); higher = more cells survive
# CONDITION INFO: first compound 0.01 µM
OBSERVED PROPERTY: relative viability
The answer should be written as a number, with no unit following it.

Problem: Give the reported relative viability for this compound. CC(C)Oc1cc(Nc2nc(N[C@@H](C)c3ccc(F)cn3)ncc2Cl)n[nH]1 [AZ23] + CC(=O)Nc1cccc(-n2c(=O)n(C3CC3)c(=O)c3c(Nc4ccc(I)cc4F)n(C)c(=O)c(C)c32)c1 [Trametinib] (partner 0.02 µM)
Result: 0.472

Problem: Give the reported relative viability for this compound. CC(C)Oc1cc(Nc2nc(N[C@@H](C)c3ccc(F)cn3)ncc2Cl)n[nH]1 [AZ23] + CS(=O)(=O)N1CCN(Cc2cc3nc(-c4cccc5[nH]ncc45)nc(N4CCOCC4)c3s2)CC1 [Pictilisib] (partner 1 µM)
Result: 0.248

Problem: Give the reported relative viability for this compound. CC(C)Oc1cc(Nc2nc(N[C@@H](C)c3ccc(F)cn3)ncc2Cl)n[nH]1 [AZ23] + C[C@@H](Oc1cc(-c2cnn(C3CCNCC3)c2)cnc1N)c1c(Cl)ccc(F)c1Cl [Crizotinib] (partner 1 µM)
Result: 1.47

Problem: Give the reported relative viability for this compound. CC(C)Oc1cc(Nc2nc(N[C@@H](C)c3ccc(F)cn3)ncc2Cl)n[nH]1 [AZ23] + Cc1nc(Nc2ncc(C(=O)Nc3c(C)cccc3Cl)s2)cc(N2CCN(CCO)CC2)n1 [Dasatinib] (partner 0.075 µM)
Result: 0.804

###

# Tested on: HCC-15
# ASSAY PROTOCOL: relative viability (nuclei count vs DMSO), 5 days (fraction); higher = more cells survive
# CONDITION INFO: first compound 0.03162 µM
OBSERVED PROPERTY: relative viability
The answer should be written as a number, with no unit following it.

Problem: Give the reported relative viability for this molecule. CC(C)Oc1cc(Nc2nc(N[C@@H](C)c3ccc(F)cn3)ncc2Cl)n[nH]1 [AZ23] + CS(=O)(=O)CCNCc1ccc(-c2ccc3ncnc(Nc4ccc(OCc5cccc(F)c5)c(Cl)c4)c3c2)o1 [Lapatinib] (partner 2 µM)
Result: 0.839

Problem: Give the reported relative viability for this molecule. CC(C)Oc1cc(Nc2nc(N[C@@H](C)c3ccc(F)cn3)ncc2Cl)n[nH]1 [AZ23] + CC(=O)Nc1cccc(-n2c(=O)n(C3CC3)c(=O)c3c(Nc4ccc(I)cc4F)n(C)c(=O)c(C)c32)c1 [Trametinib] (partner 0.02 µM)
Result: 0.413

Problem: Give the reported relative viability for this molecule. CC(C)Oc1cc(Nc2nc(N[C@@H](C)c3ccc(F)cn3)ncc2Cl)n[nH]1 [AZ23] + N=C(N)NC(=N)NCCc1ccccc1 [Phenformin] (partner 250 µM)
Result: 0.537

Problem: Give the reported relative viability for this molecule. CC(C)Oc1cc(Nc2nc(N[C@@H](C)c3ccc(F)cn3)ncc2Cl)n[nH]1 [AZ23] + CC(C)C[C@H](NC(=O)[C@H](Cc1ccccc1)NC(=O)c1cnccn1)B(O)O [Bortezomib] (partner 0.002 µM)
Result: 1.09

Problem: Give the reported relative viability for this molecule. CC(C)Oc1cc(Nc2nc(N[C@@H](C)c3ccc(F)cn3)ncc2Cl)n[nH]1 [AZ23] + COc1cc2c(Oc3ccc(NC(=O)C4(C(=O)Nc5ccc(F)cc5)CC4)cc3F)ccnc2cc1OCCCN1CCOCC1 [Foretinib] (partner 0.25 µM)
Result: 1.09

###

Answer each item with its documented relative viability.
# System: NCI-H596
# ASSAY PROTOCOL: relative viability (nuclei count vs DMSO), 5 days (fraction); higher = more cells survive
# CONDITION INFO: first compound 0.08 µM
The answer should be written as a number, with no unit following it.

Problem: Give the reported relative viability for this molecule. CCCCCCCCCCCC1=C(O)C(=O)C=C(O)C1=O [Embelin] + Cc1nc(Nc2ncc(C(=O)Nc3c(C)cccc3Cl)s2)cc(N2CCN(CCO)CC2)n1 [Dasatinib] (partner 0.075 µM)
Result: 0.739

Problem: Give the reported relative viability for this molecule. CCCCCCCCCCCC1=C(O)C(=O)C=C(O)C1=O [Embelin] + COc1cccc2cc(-c3nc([C@H]4CC[C@H](C(=O)O)CC4)n4ncnc(N)c34)[nH]c12 [OSI-027] (partner 0.5 µM)
Result: 0.773

Problem: Give the reported relative viability for this molecule. CCCCCCCCCCCC1=C(O)C(=O)C=C(O)C1=O [Embelin] + N=C(N)NC(=N)NCCc1ccccc1 [Phenformin] (partner 250 µM)
Result: 0.743

Problem: Give the reported relative viability for this molecule. CCCCCCCCCCCC1=C(O)C(=O)C=C(O)C1=O [Embelin] + CC1(C)CCC(c2ccc(Cl)cc2)=C(CN2CCN(c3ccc(C(=O)NS(=O)(=O)c4ccc(N[C@H](CCN5CCOCC5)CSc5ccccc5)c(S(=O)(=O)C(F)(F)F)c4)cc3)CC2)C1 [Navitoclax] (partner 0.5 µM)
Result: 0.934

Problem: Give the reported relative viability for this molecule. CCCCCCCCCCCC1=C(O)C(=O)C=C(O)C1=O [Embelin] + O=C(c1cc(Cc2n[nH]c(=O)c3ccccc23)ccc1F)N1CCN(C(=O)C2CC2)CC1 [Olaparib] (partner 8 µM)
Result: 0.698

Problem: Give the reported relative viability for this molecule. CCCCCCCCCCCC1=C(O)C(=O)C=C(O)C1=O [Embelin] + CC(=O)Nc1cccc(-n2c(=O)n(C3CC3)c(=O)c3c(Nc4ccc(I)cc4F)n(C)c(=O)c(C)c32)c1 [Trametinib] (partner 0.02 µM)
Result: 0.832

Problem: Give the reported relative viability for this molecule. CCCCCCCCCCCC1=C(O)C(=O)C=C(O)C1=O [Embelin] + COc1cc2c(Oc3ccc(NC(=O)C4(C(=O)Nc5ccc(F)cc5)CC4)cc3F)ccnc2cc1OCCCN1CCOCC1 [Foretinib] (partner 0.25 µM)
Result: 0.834

Problem: Give the reported relative viability for this molecule. CCCCCCCCCCCC1=C(O)C(=O)C=C(O)C1=O [Embelin] + CC(C)C[C@H](NC(=O)[C@H](Cc1ccccc1)NC(=O)c1cnccn1)B(O)O [Bortezomib] (partner 0.002 µM)
Result: 0.955
